system: Caspase-7 (Homo sapiens, UniProt P55210)
Sequence (P55210 24-198 limits assumed): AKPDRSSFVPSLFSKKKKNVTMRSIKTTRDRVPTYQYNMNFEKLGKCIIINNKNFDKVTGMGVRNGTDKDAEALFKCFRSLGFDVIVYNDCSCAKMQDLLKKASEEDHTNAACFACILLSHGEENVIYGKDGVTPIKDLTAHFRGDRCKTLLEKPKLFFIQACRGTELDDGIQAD
Sequence (P55210 207-303 limits assumed): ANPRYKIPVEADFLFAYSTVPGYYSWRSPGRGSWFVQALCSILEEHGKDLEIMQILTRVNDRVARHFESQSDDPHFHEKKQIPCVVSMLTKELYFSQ
test_method_notes: Inhibition of human recombinant caspase 7
pIC50: −log10 of the molar value.
Decision: pIC50 >= 6 yields yes (1), all other cases yield no (0).

Example cases with answers are listed next.
compound="CCC(C(=O)N[C@@H](CC(=O)O)C(=O)CCCc1ccccc1)n1cc(C(C)(C)C)nc(NC(CC(C)C)C(=O)O)c1=O (stereo partly specified)" system="Caspase-7 (Homo sapiens, UniProt P55210)" classification="no (0)"
compound="CCC(C(=O)N[C@@H](CC(=O)O)C(=O)CCCc1ccccc1)n1cc(C(C)(C)C)nc(Nc2ccc3c(c2)OCCO3)c1=O (stereo partly specified)" system="Caspase-7 (Homo sapiens, UniProt P55210)" classification="yes (1)"
compound="CCCCCCN(C)CC(=O)[C@H](CC(=O)O)NC(=O)C(CC)n1cc(C(C)(C)C)nc(Nc2nnn[nH]2)c1=O (stereo partly specified)" system="Caspase-7 (Homo sapiens, UniProt P55210)" classification="yes (1)"

Let us examine a further case.
Kindly determine if pIC50 recorded for CCC(C(=O)N[C@@H](CC(=O)O)C(=O)CCCc1ccccc1)n1cc(C(C)(C)C)nc(Nc2nnn[nH]2)c1=O (stereo partly specified) is above or exactly 6.
yes (1)

---

system: Caspase-8 (Homo sapiens, UniProt Q14790)
Sequence (Q14790 217-374 limits assumed): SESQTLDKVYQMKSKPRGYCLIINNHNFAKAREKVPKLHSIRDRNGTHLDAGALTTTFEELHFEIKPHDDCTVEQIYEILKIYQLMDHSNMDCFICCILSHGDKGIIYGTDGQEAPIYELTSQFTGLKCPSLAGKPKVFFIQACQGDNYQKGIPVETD
Sequence (Q14790 385-479 limits assumed): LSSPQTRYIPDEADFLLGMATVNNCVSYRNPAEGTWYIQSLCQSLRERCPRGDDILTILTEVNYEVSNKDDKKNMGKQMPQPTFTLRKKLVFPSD
test_method_notes: Inhibition of human recombinant caspase 8
assay_metric: IC50 (nM)
Answer format: numeric, nM implied, no suffix.

Here are 2 compounds together with their reported answers.
compound="CCC(C(=O)N[C@@H](CC(=O)O)C(=O)CCCc1ccccc1)n1cc(C(C)(C)C)nc(NCCc2cccs2)c1=O (stereo partly specified)" assay_metric=IC50 units=nM obs_value=300
compound="CCC(C(=O)N[C@@H](CC(=O)O)C(=O)CCCc1ccccc1)n1cc(C(C)(C)C)nc(NCc2cc(OC)cc(OC)c2)c1=O (stereo partly specified)" assay_metric=IC50 units=nM obs_value=3050

Field IC50 (Caspase-8 (Homo sapiens, UniProt Q14790)), entry CCC(C(=O)N[C@@H](CC(=O)O)C(=O)CCCc1ccccc1)n1cc(C(C)(C)C)nc(Nc2nnn[nH]2)c1=O (stereo partly specified) : 14

Field IC50 (Caspase-8 (Homo sapiens, UniProt Q14790)), entry CCC(C(=O)N[C@@H](CC(=O)O)C(=O)CCCc1ccccc1)n1cc(C(C)(C)C)nc(Nc2ccc3c(c2)OCCO3)c1=O (stereo partly specified) : 1000

Field IC50 (Caspase-8 (Homo sapiens, UniProt Q14790)), entry CCCCCCN(C)CC(=O)[C@H](CC(=O)O)NC(=O)C(CC)n1cc(C(C)(C)C)nc(Nc2nnn[nH]2)c1=O (stereo partly specified) : 163
